# ASSAY TARGET: T1, human PVRIG-his (AcroBiosystems, Cat NO. PVG-H52H4) (human, UniProt Q6DKI7 41-171, limits assumed)
# T1 construct: also called human PVRIG protein
# T1 sequence (looked up): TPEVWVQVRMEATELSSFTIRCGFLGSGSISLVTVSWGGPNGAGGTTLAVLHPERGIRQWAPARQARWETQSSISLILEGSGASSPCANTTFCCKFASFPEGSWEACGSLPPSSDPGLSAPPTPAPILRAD
# METHOD: competition ELISA, PVRIG-His coated, competitor human PVRL2-mFc
The following binders are listed with their measured % relative activity (IC50) parental antibody/test antibody values.
Give your result in % as a bare value.

Solved cases below.
[
  {
    "BINDER": "PVRIG-A105-H3 (Fc fusion, humanized variant of PVRIG-A105; also called A105.VH3; not shown: constant part not restated for the humanized forms; parents are VHH-hinge-CH2-CH3 of human IgG1; detected by anti-human) EVQLVESGGGLVQPGGSLRLSCAASGRTFDRHTMTWFRQAPGKEREFVATASRIPGDTYYVDSVKGRFTISRDNAKNSVYLQMNSLRAEDTAVYYCAATSAYCSEVDCYEKGSWYDNWGQGTMVTVSS",
    "TEST VALUE": 97.9
  },
  {
    "BINDER": "PVRIG-A118-H4 (Fc fusion, humanized variant of PVRIG-A118; also called A118.VH4; not shown: constant part not restated for the humanized forms; parents are VHH-hinge-CH2-CH3 of human IgG1; detected by anti-human) EVQLVESGGGLVQPGGSLRLSCAASETYFDLYVMGWYRQAPGKDRELVATITYTGSIKYVDSVKGRFTISRGDAKNSLSLQMNSLRAEDTAVYYCNADPSGLGRKVYWGQGTMVTVSS",
    "TEST VALUE": 120
  }
]

Name the reported % relative activity (IC50) parental antibody/test antibody value associated with the binder PVRIG-A118-H6 (Fc fusion, humanized variant of PVRIG-A118; also called A118.VH6; not shown: constant part not restated for the humanized forms; parents are VHH-hinge-CH2-CH3 of human IgG1; detected by anti-human) EVQLVESGGGLVQPGGSLRLSCAASETYFDLYVMGWYRQAPGKDRELVATITYTGSIKIVDSVKGRFTISRGDAKNSLYLQMNSLRAEDTAVYYCNADPSGLGRKVYWGQGTMVTVSS 132

Name the reported % relative activity (IC50) parental antibody/test antibody value associated with the binder PVRIG-A118-H7 (Fc fusion, humanized variant of PVRIG-A118; also called A118.VH7; not shown: constant part not restated for the humanized forms; parents are VHH-hinge-CH2-CH3 of human IgG1; detected by anti-human) EVQLVESGGGLVQPGGSLRLSCAASETYFDLYVMGWYRQAPGKDRELVATITYTGSIKYVDSVKGRFTISRGDAKNSLYLQMNSLRAEDTAVYFCNADPSGLGRKVYWGQGTMVTVSS 129
